All values here come from PubChem BioAssay AID1745844.

- Test system: rodent lifetime carcinogenesis bioassay, tumor incidence TD50
- Method summary: carcinogenic potency in animals, long-term in vivo studies, CPDB compilation (AID 1745844)
- Experimental conditions: rat; strain Osborne-Mendel; females; in feed; site: liver; lesion: hepatocellular adenoma + hepatocellular carcinoma + neoplastic nodule; dosed 80 weeks; study length 112 weeks
Endpoint name: TD50

>>> print(df.to_string())
                           entry_smiles                            assayed_system          result
0  CCOP(=S)(OCC)Oc1ccc([N+](=O)[O-])cc1  rodent lifetime carcinogenesis bioassay, tumor incidence TD50  16.4 mg/kg/day
